The measured values listed here are drawn from ChEMBL document CHEMBL1156341.

System: Plasmodium falciparum
Assay: Antimalarial activity against chloroquine-sensitive Plasmodium falciparum D6
Format: functional, organism-based
So I've got a bunch of compounds here, and I need their IC50 values.
Give bare numbers, in µg/mL.

[Q] // IC50 lookup, key: CC(=O)O[C@@H]1C[C@H]2[C@H](C)CC[C@H]3[C@@H](C)C(=O)O[C@@H]4O[C@]1(C)OO[C@]423
[A] 0.0111

[Q] // IC50 lookup, key: C[C@@H]1CC[C@H]2C(=C3CC3)C(=O)O[C@@H]3O[C@@]4(C)CC[C@@H]1[C@]32OO4
[A] 0.0062

[Q] // IC50 lookup, key: C=C[C@H]1CN2CC[C@H]1C[C@H]2[C@H](O)c1ccnc2ccc(OC)cc12
[A] 0.0196

Give IC50 for each listed item.
1. C[C@@H]1CC[C@H]2[C@@H](CC#N)C(=O)O[C@@H]3O[C@@]4(C)CC[C@@H]1[C@]32OO4
2. C[C@@H]1CC[C@H]2[C@@H](CC[N+](=O)[O-])C(=O)O[C@@H]3O[C@@]4(C)CC[C@@H]1[C@]32OO4
3. COC(=O)C[C@H]1C(=O)O[C@@H]2O[C@@]3(C)CC[C@H]4[C@H](C)CC[C@@H]1[C@@]24OO3
4. COC[C@H]1C(=O)O[C@@H]2O[C@@]3(C)CC[C@H]4[C@H](C)CC[C@@H]1[C@@]24OO3

[A]
1. 0.0184
2. 0.00068
3. 0.046
4. 0.075
